Tested on: Escherichia coli TOP10
TEST SUMMARY: shrunken log2 fold change of peptide-encoding DNA abundance (4.5 h post-induction vs induction); higher = less antimicrobial activity (less host growth inhibition)
ASSAY SETUP: time post-induction: 4.5 h; library: site-saturation at positions 5, 18, 19, 20
// reported shrunken log2 fold change per item
OBSERVED PROPERTY: shrunken log2 fold change

* RRIRDRPPRLPRPRPRPSMSPRP | -0.33
* RRIRWRPPRLPRPRPRPCEHPRP | 0.0123
* RRIRHRPPRLPRPRPRPRPDPRP | 0.179
* RRIRFRPPRLPRPRPRPMGQPRP | -0.0471
* RRIRKRPPRLPRPRPRPYHPPRP | 0.0155
* RRIRMRPPRLPRPRPRPTLYPRP | 0.16
* RRIRFRPPRLPRPRPRPIRDPRP | 0.0144
* RRIRRRPPRLPRPRPRPNRTPRP | -0.0707
* RRIRVRPPRLPRPRPRPRRGPRP | 0.579
* RRIRRRPPRLPRPRPRPKDGPRP | 0.378
* RRIRWRPPRLPRPRPRPHHDPRP | -0.708
* RRIRYRPPRLPRPRPRPAFEPRP | -0.0224
* RRIRERPPRLPRPRPRPYSVPRP | -0.114
* RRIRCRPPRLPRPRPRPYNCPRP | -0.195
* RRIRVRPPRLPRPRPRPVPFPRP | -0.115
* RRIRFRPPRLPRPRPRPSEQPRP | -0.217
* RRIRMRPPRLPRPRPRPNVPPRP | 0.0131
* RRIRHRPPRLPRPRPRPHLFPRP | -0.154
* RRIRARPPRLPRPRPRPDSDPRP | -0.0357
* RRIRCRPPRLPRPRPRPTCFPRP | 0.152
* RRIRVRPPRLPRPRPRPRCNPRP | -0.135
* RRIRFRPPRLPRPRPRPISEPRP | -0.0674
* RRIRMRPPRLPRPRPRPFNRPRP | -0.00136
* RRIRHRPPRLPRPRPRPAVIPRP | -0.0639
* RRIRQRPPRLPRPRPRPHCEPRP | -0.0142
* RRIRCRPPRLPRPRPRPHPGPRP | -0.156
* RRIRHRPPRLPRPRPRPPHVPRP | 0.16
* RRIRLRPPRLPRPRPRPNPSPRP | 0.104
* RRIRIRPPRLPRPRPRPYNRPRP | -0.01
* RRIRVRPPRLPRPRPRPYNRPRP | -0.0579
* RRIRARPPRLPRPRPRPSNPPRP | -0.0677
* RRIRWRPPRLPRPRPRPVVSPRP | 0.0155

====

System: Escherichia coli TOP10;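 also: peptides expressed intracellularly from a pBAD plasmid library in pooled LB shake-flask culture, induced with 0.3% L-arabinose, DNA abundance read by NGS, three biological replicates, DESeq2 with apeglm shrinkage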
TEST SUMMARY: shrunken log2 fold change of peptide-encoding DNA abundance (4.5 h post-induction vs induction); higher = less antimicrobial activity (less host growth inhibition)
ASSAY SETUP: time post-induction: 4.5 h; library: site-saturation at positions 5, 18, 19, 20
# binarize shrunken log2 fold change: threshold 0.08 inclusive, high side MET, low side NOT MET

* RRIRGRPPRLPRPRPRPRETPRP | MET
* RRIRWRPPRLPRPRPRPLEQPRP | MET
* RRIRHRPPRLPRPRPRPQNMPRP | NOT MET
* RRIRTRPPRLPRPRPRPSSTPRP | NOT MET
* RRIRGRPPRLPRPRPRPPCYPRP | MET
* RRIRFRPPRLPRPRPRPSQPPRP | NOT MET
* RRIRNRPPRLPRPRPRPIHHPRP | NOT MET
* RRIRHRPPRLPRPRPRPMTSPRP | NOT MET
* RRIRQRPPRLPRPRPRPLGRPRP | NOT MET
* RRIRIRPPRLPRPRPRPNKNPRP | NOT MET
* RRIRIRPPRLPRPRPRPDSFPRP | NOT MET
* RRIRSRPPRLPRPRPRPYWMPRP | NOT MET
* RRIRGRPPRLPRPRPRPPNAPRP | MET
* RRIRERPPRLPRPRPRPPMKPRP | NOT MET
* RRIRKRPPRLPRPRPRPMSDPRP | MET
* RRIRTRPPRLPRPRPRPDSCPRP | NOT MET
* RRIRVRPPRLPRPRPRPKVWPRP | MET
* RRIRPRPPRLPRPRPRPLRNPRP | MET
* RRIRRRPPRLPRPRPRPSAPPRP | MET
* RRIRERPPRLPRPRPRPQKSPRP | NOT MET
* RRIRVRPPRLPRPRPRPGLYPRP | NOT MET
* RRIRFRPPRLPRPRPRPNVLPRP | NOT MET
* RRIRYRPPRLPRPRPRPEGQPRP | NOT MET
* RRIRFRPPRLPRPRPRPNSIPRP | NOT MET
* RRIRERPPRLPRPRPRPWNKPRP | NOT MET
* RRIRVRPPRLPRPRPRPNRPPRP | NOT MET
* RRIRGRPPRLPRPRPRPTTMPRP | MET
* RRIRMRPPRLPRPRPRPVFRPRP | NOT MET
* RRIRKRPPRLPRPRPRPPEWPRP | MET
* RRIRPRPPRLPRPRPRPCALPRP | NOT MET
* RRIRNRPPRLPRPRPRPSYLPRP | NOT MET
* RRIRIRPPRLPRPRPRPDMEPRP | NOT MET
* RRIRCRPPRLPRPRPRPYDYPRP | NOT MET
* RRIRQRPPRLPRPRPRPSKWPRP | NOT MET
* RRIRRRPPRLPRPRPRPDQTPRP | NOT MET
* RRIRSRPPRLPRPRPRPSAFPRP | NOT MET
* RRIRHRPPRLPRPRPRPPCIPRP | NOT MET
* RRIRVRPPRLPRPRPRPIFAPRP | MET
* RRIRERPPRLPRPRPRPHISPRP | NOT MET
* RRIRYRPPRLPRPRPRPFRAPRP | NOT MET
* RRIRSRPPRLPRPRPRPHPPPRP | MET
* RRIRFRPPRLPRPRPRPSEEPRP | NOT MET
* RRIRFRPPRLPRPRPRPNNDPRP | NOT MET
* RRIRMRPPRLPRPRPRPIVSPRP | NOT MET
* RRIRWRPPRLPRPRPRPLMTPRP | MET
* RRIRDRPPRLPRPRPRPLPDPRP | MET
* RRIRYRPPRLPRPRPRPCQAPRP | NOT MET
* RRIRQRPPRLPRPRPRPRETPRP | MET
* RRIRMRPPRLPRPRPRPAYGPRP | NOT MET
* RRIRGRPPRLPRPRPRPTHQPRP | MET
* RRIRSRPPRLPRPRPRPGMIPRP | NOT MET
* RRIRSRPPRLPRPRPRPLFLPRP | NOT MET
* RRIRRRPPRLPRPRPRPWKYPRP | NOT MET
* RRIRHRPPRLPRPRPRPEQVPRP | NOT MET
* RRIRKRPPRLPRPRPRPMREPRP | MET
* RRIRNRPPRLPRPRPRPDPRPRP | MET
* RRIRSRPPRLPRPRPRPQRDPRP | NOT MET
* RRIRMRPPRLPRPRPRPRFAPRP | MET
* RRIRIRPPRLPRPRPRPYTYPRP | NOT MET
* RRIRSRPPRLPRPRPRPIGEPRP | NOT MET
* RRIRYRPPRLPRPRPRPCQMPRP | NOT MET
* RRIRERPPRLPRPRPRPCPHPRP | NOT MET
* RRIRCRPPRLPRPRPRPTHKPRP | MET
